target: canine TRPM8 (Canis lupus familiaris); assay: In Vitro Canine TRPM8 Functional Assay (Ca2+ fluorescence, icilin activation); type: cell-based; conditions: HEK293 cells stably expressing canine TRPM8; icilin activation; eight-point dose-response; read-out: IC50
measurement.kind: IC50 (nM)

* CCS(=O)(=O)N(CCC(F)(F)F)c1sc2ccccc2c1C(C)O (stereo not drawn) | 70
* COC(=O)CCS(=O)(=O)N(CCCCC(F)(F)F)c1sc2ccccc2c1C | 10.3
* O=C(O)c1ccc(S(=O)(=O)N(CCCC(F)(F)F)c2cc3ccccc3s2)cc1 | 68
* CC(C)(O)c1c(N(Cc2ccc(F)c(Cl)c2)S(=O)(=O)c2ccc(Br)cc2)sc2ccccc12 | 29.9
* Cc1c(N(Cc2ccc(F)c(C(F)(F)F)c2)S(=O)(=O)c2ccc(C(=O)O)cc2)sc2cc(F)ccc12 | 5

P: NC(=O)c1c(N(Cc2ccc(F)c(C(F)(F)F)c2)S(=O)(=O)c2ccccc2)sc2ccccc12
Q: CC(C)(C)OCCN(c1sc2ccccc2c1Cl)S(=O)(=O)c1ccccc1
Exercise: Select one: P or Q . Criterion: greater recorded IC50. # answer = label of selected item
Solution: Q
(Q: 15 nM, P: 9 nM)

P: CCS(=O)(=O)N(Cc1ccc(F)c(F)c1)c1sc2ccccc2c1Br
Q: CN(C)S(=O)(=O)N(CCOC(C)(C)C)c1sc2ccccc2c1Br
Exercise: Sorting ascending by IC50, which comes first: P or Q ? Write down the label of the entry you select.
Solution: P
(P: 2.6 nM, Q: 10 nM)

I: Cc1cccc(CN(c2sc3ccccc3c2Br)S(=O)(=O)c2ccccc2)c1
II: O=S(=O)(c1ccccc1)N(Cc1ccc(C(F)(F)F)cc1)c1sc2ccccc2c1Cl
Exercise: For I and II , which recorded IC50 is lower? Kindly state the label of the option you pick.
Solution: I

I: Cc1c(N(Cc2ccc(F)c(C(F)(F)F)c2)S(=O)(=O)c2ccc(-c3csnn3)cc2)sc2ccccc12
II: O=S(=O)(c1ccc(-c2nnn[nH]2)cc1)N(Cc1ccc(F)c(C(F)(F)F)c1)c1cc2ccccc2s1
III: O=S(=O)(c1cccc(O)c1)N(Cc1ccc(F)c(C(F)(F)F)c1)c1sc2ccccc2c1Cl
IV: COC(=O)c1ccc(S(=O)(=O)N(CCCC(F)(F)F)c2sc3ccccc3c2C)cc1
Exercise: List the 4 entries from lowest IC50 to highest IC50 value. When ranking, write the labels in the order the request describes.
Solution: I, II, III, IV

a: COC(=O)c1cccc(S(=O)(=O)N(Cc2ccc(F)c(C(F)(F)F)c2)c2sc3cc(F)ccc3c2C)c1
b: COC(=O)c1ccc(S(=O)(=O)N(Cc2ccc(F)c(C(F)(F)F)c2)c2sc3ccccc3c2C(C)(C)O)cc1
c: CCS(=O)(=O)N(Cc1ccc(F)c(C(F)(F)F)c1)c1sc2ccccc2c1-c1cncnc1
d: O=S(=O)(c1cccnc1)N(CCCC(F)(F)F)c1sc2ccccc2c1Cl
Exercise: Form: Sort by [IC50] Order [ ascending ] Please list each label once, in the requested order.
Solution: b, c, a, d

###

biological target: canine TRPM8 (Canis lupus familiaris, UniProt Q1A7N1); assay: In Vitro Canine TRPM8 Functional Assay (Ca2+ fluorescence, icilin activation); type: cell-based; settings: compound at 0.2 μM; canine TRPM8, icilin activation
Sequence (Q1A7N1 1-1104): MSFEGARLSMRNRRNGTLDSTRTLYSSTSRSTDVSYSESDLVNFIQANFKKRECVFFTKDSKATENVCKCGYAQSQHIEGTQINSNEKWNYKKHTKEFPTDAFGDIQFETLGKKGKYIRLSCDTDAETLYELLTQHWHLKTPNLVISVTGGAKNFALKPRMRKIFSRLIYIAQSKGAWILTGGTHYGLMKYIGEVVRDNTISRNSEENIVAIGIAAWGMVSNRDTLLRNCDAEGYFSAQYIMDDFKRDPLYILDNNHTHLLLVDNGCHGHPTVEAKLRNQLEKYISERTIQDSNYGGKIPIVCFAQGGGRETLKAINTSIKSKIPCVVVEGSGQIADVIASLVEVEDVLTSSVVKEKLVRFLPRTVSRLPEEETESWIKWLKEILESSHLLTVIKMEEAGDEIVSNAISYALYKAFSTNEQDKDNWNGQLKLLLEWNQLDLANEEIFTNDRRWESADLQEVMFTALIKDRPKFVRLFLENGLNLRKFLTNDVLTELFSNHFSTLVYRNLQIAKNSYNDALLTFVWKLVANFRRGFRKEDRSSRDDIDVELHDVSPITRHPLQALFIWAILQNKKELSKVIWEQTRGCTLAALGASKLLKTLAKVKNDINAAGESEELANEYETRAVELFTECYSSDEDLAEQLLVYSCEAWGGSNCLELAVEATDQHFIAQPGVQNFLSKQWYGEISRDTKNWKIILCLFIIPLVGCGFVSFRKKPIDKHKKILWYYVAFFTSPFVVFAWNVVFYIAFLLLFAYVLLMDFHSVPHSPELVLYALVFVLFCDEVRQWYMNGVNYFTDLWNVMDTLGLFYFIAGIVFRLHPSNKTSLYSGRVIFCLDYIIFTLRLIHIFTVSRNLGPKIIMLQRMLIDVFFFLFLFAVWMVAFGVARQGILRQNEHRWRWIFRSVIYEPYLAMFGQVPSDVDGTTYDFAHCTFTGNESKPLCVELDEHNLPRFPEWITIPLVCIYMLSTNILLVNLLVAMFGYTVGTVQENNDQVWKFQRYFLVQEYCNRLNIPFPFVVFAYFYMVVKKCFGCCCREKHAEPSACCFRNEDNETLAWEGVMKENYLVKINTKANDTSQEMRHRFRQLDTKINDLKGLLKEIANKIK
measurement.kind: % Inh @ 0.2 (μM) (%)

Solved cases below.
* CN(C)S(=O)(=O)N(Cc1ccc(F)c(C(F)(F)F)c1)c1sc2ccccc2c1Br | 102
* CCS(=O)(=O)N(Cc1ccc(F)c(C(F)(F)F)c1)c1sc2ccccc2c1[C@@H](C)O | 102
* O=S1NC(c2ccc(S(=O)(=O)N(CCC3CC3)c3sc4ccccc4c3Br)cc2)=NO1 (stereo not drawn) | 103
* CC(C)(O)c1c(N(CCC(F)(F)F)S(=O)(=O)c2ccc(C(=O)[O-])cc2)sc2ccccc12.[Na+] | 98
* O=C(O)c1ccc(S(=O)(=O)N(C[C@@H]2C[C@@H]3CC[C@H]2C3)c2sc3ccccc3c2Br)cc1 | 86
* CCCCN(c1sc2ccccc2c1C)S(=O)(=O)c1ccc(C2=NOS(=O)N2)cc1 (stereo not drawn) | 104.6
* CCCCN(c1sc2ccccc2c1C(=O)N(C)C)S(=O)(=O)c1ccc(C(=O)OC)cc1 | 100
* O=C(O)c1ccc(S(=O)(=O)N(CCC2CC2)c2sc3ccccc3c2Cl)cc1 | 100

a: CSc1ncccc1S(=O)(=O)N(Cc1ccc(F)c(C(F)(F)F)c1)c1sc2ccccc2c1C
b: CCS(=O)(=O)N(Cc1ccc(F)c(C(F)(F)F)c1)c1sc2ccccc2c1[C@H](C)O
Exercise: Min % Inh @ 0.2 (μM)? a | b Selection: enter the item's label.
Solution: a

###

target: canine TRPM8 (Canis lupus familiaris); assay: In Vitro Canine TRPM8 Functional Assay (Ca2+ fluorescence, icilin activation); assay type: cell-based; conditions: compound at 0.2 μM; canine TRPM8, icilin activation; read-out: % Inh @ 0.2
measurement.kind: inhibition at 0.2 µM (%)

See these solved cases before continuing.
- CC(=O)c1c(N(CCCCC(F)(F)F)S(=O)(=O)c2ccc(C#N)cc2)sc2ccccc12: 94
- Cc1c(N(CCC(F)(F)F)S(=O)(=O)c2cccc(C#N)c2)sc2ccccc12: 104
- CC(=O)c1ccc(S(=O)(=O)N(Cc2ccc(F)c(C(F)(F)F)c2)c2sc3ccccc3c2C)cc1: 96
- Cc1c(N(CCCC(F)(F)F)S(=O)(=O)c2ccc(C(C)(C)O)cc2)sc2ccccc12: 94
- O=S(=O)(c1ccc(-c2nnn[nH]2)cc1)N(Cc1ccc(F)c(C(F)(F)F)c1)c1sc2ccccc2c1Br: 102

I: CN1CCN(C2=C(N(Cc3ccc(F)c(C(F)(F)F)c3)S(=O)(=O)c3ccccc3)S(=O)(=O)c3ccccc32)CC1
II: CC(C)(O)c1c(N(Cc2ccc(OC(F)(F)F)cc2)S(=O)(=O)c2ccc(Br)cc2)sc2ccccc12
Exercise: Hi there! Just curious which has the higher inhibition at 0.2 µM between I and II . Bench note: the answer is the label of the chosen record.
Solution: II

###

molecular target: canine TRPM8 (Canis lupus familiaris); assay: In Vitro Canine TRPM8 Functional Assay (Ca2+ fluorescence, icilin activation); type: cell-based; details: HEK293 cells stably expressing canine TRPM8, icilin activation; average of two or more determinations; read-out: IC50
measurement.kind: IC50 (nM)

- O=S(=O)(c1ccccc1)N(CCCF)c1sc2ccccc2c1CO: 28
- CCS(=O)(=O)N(Cc1ccc(F)c(C(F)(F)F)c1)c1sc2ccccc2c1C(C)OC (stereo not shown): 15.9
- O=S(=O)(c1ccccc1)N(Cc1ccc(F)c(C(F)(F)F)c1)c1sc2ncccc2c1Cl: 28

P: Cc1c(N(CCCF)S(=O)(=O)c2ccccc2)sc2ccccc12
Q: CCS(=O)(=O)N(Cc1ccc(F)c(OC)c1)c1sc2ccccc2c1C(C)O (stereo not shown)
R: O=C(O)c1cccc(S(=O)(=O)N(Cc2ccc(F)c(C(F)(F)F)c2)c2sc3ncccc3c2Cl)c1
S: CC(=O)c1c(N(CCCF)S(=O)(=O)c2ccccc2)sc2ccccc12
Exercise: Returns the items ordered by IC50, from maximum to minimum. Write out the labels following the order that was asked for.
Solution: R, P, S, Q
(R: 138 nM, P: 21 nM, S: 13 nM, Q: 6.6 nM)

###

target: canine TRPM8 (Canis lupus familiaris, UniProt Q1A7N1); experiment: In Vitro Canine TRPM8 Functional Assay (Ca2+ fluorescence, icilin activation); assay type: cell-based; conditions: HEK293 cells stably expressing canine TRPM8; icilin activation; eight-point dose-response; read-out: IC50
measurement.kind: IC50 (nM)

- CC(C)(O)c1c(N(Cc2ccc(F)cc2)S(=O)(=O)c2ccc(Br)cc2)sc2ccccc12: 9.7
- Cc1c(N(CCCCC(F)(F)F)S(=O)(=O)c2ccc(-c3nsc(=O)[nH]3)cc2)sc2ccccc12: 11
- Cc1c(N(CCC2CC2)S(=O)(=O)c2ccc(N(C)C)cc2)sc2ccccc12: 8.9
- CCS(=O)(=O)N(Cc1ccc(F)c(F)c1)c1sc2ccccc2c1CO: 7.8

###

biological target: canine TRPM8 (Canis lupus familiaris, UniProt Q1A7N1); experiment: In Vitro Canine TRPM8 Functional Assay (Ca2+ fluorescence, icilin activation); assay type: cell-based; conditions: compound at 0.2 μM; canine TRPM8, icilin activation; read-out: % Inh @ 0.2
measurement.kind: inhibition at 0.2 µM (%)

- CS(=O)(=O)N(Cc1ccc(F)c(C(F)(F)F)c1)c1cc2ccccc2s1 [Compound 45]: 97
- Cc1c(N(CCCCC(F)(F)F)S(=O)(=O)c2cccc(C#N)c2)sc2ccccc12 [Compound 552]: 101
- Cc1c(N(Cc2ccc(F)c(C(F)(F)F)c2)S(=O)(=O)c2cccc(C#N)c2)sc2ccccc12 [Compound 546]: 85.7
- Cc1c(N(CCCCC(F)(F)F)S(=O)(=O)c2ccc(N(C)C)cc2)sc2ccccc12 [Compound 748]: 101
- Nc1ccc(S(=O)(=O)N(CCCCC(F)(F)F)c2sc3ccccc3c2Cl)cc1 [Compound 666]: 103
- O=C(O)c1ccc(S(=O)(=O)N(CC(F)F)c2sc3ccccc3c2Br)cc1 [Compound 276]: 76
- Cc1c(N(CCCCC(F)(F)F)S(=O)(=O)c2nc3ccccc3[nH]2)sc2ccccc12 [Compound 720]: 52
- O=c1[nH]c(-c2ccc(S(=O)(=O)N(CCC3CC3)c3sc4ccccc4c3Br)cc2)no1 [Compound 626]: 103
- Cc1c(N(CCC(F)(F)F)S(=O)(=O)c2ccc(-c3nnn[nH]3)cc2)sc2ccccc12 [Compound 572]: 101
- Cc1nn(C)c(C)c1S(=O)(=O)N(Cc1ccc(F)c(C(F)(F)F)c1)c1sc2ccccc2c1C [Compound 74]: 97
- Cc1c(N(Cc2ccc(F)c(C(F)(F)F)c2)S(=O)(=O)CC(F)(F)F)sc2ccccc12 [Compound 669]: 96.4
- CC1=C(N(CCC2CC2)S(=O)(=O)c2ccccc2)S(=O)(=O)c2ccccc21 [Compound 618]: 101
- O=C(O)c1ccc(S(=O)(=O)N(CCOC2CCCCC2)c2sc3ccccc3c2Br)cc1 [Compound 453]: 101
- COC(=O)c1cccc(CN(c2sc3ccccc3c2Br)S(=O)(=O)c2cccnc2)c1 [Compound 405]: 95
- CC(=O)c1ccc(S(=O)(=O)N(Cc2ccc(F)c(C(F)(F)F)c2)c2sc3ccccc3c2C(C)(C)O)cc1 [Compound 389]: 97
- CCS(=O)(=O)N(CCC(F)(F)F)c1sc2ccccc2c1C(C)O (centres unmarked) [Compound 282]: 86
- CNS(=O)(=O)N(Cc1ccc(F)c(C(F)(F)F)c1)c1sc2ccccc2c1Br [Compound 705]: 101
